target: T1, human programmed cell death protein 1 (hPD-1) C93S (aa 24-167) (Homo sapiens, UniProt Q15116, C93S); test: SPR; Carterra LSA; Fab from the ammonium sulfate precipitate of the culture supernatant immobilised on a NiHC200M chip; hPD-1 (1-1024 nM) or mPD-1-Fc (4-1024 nM) as analyte, fourfold dilution series, no regeneration; HBS-EP pH 7.4, 25 °C; medians over the spots of a construct, KD = koff/kon; settings: one partner purified
T1 construct: made as a fusion with a TEV site and human Fc; the Fc was cut off with TEV protease; source: Expi293F, purified (Protein A, TEV cleavage of Fc, SEC; monomer fractions); not shown: Fc (human), C-terminal, cleaved
T1 sequence (Q15116 24-167 C93S): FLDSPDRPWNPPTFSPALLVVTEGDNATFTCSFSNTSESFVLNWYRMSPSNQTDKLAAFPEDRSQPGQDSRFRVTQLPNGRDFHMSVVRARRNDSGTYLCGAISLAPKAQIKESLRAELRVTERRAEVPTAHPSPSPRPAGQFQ

{"columns": ["BINDER", "koff"],
 "data": [
  ["toripalimab Fab L.V99L (Fab, V domains shown, as the heavy chain of Sm3; light chain of Sm3 with this change; numbers count from the chain's first residue; source: Brevibacillus, culture supernatant (ammonium sulfate precipitate); not shown: 6xHis, C-terminal, kept; 6xHN, C-terminal, kept) VH: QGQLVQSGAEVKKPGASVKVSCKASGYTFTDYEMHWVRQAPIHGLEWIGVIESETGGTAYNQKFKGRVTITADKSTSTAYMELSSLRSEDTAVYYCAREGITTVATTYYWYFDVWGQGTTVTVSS VL: DVVMTQSPLSLPVTLGQPASISCRSSQSIVHSNGNTYLEWYLQKPGQSPQLLIYKVSNRFSGVPDRFSGSGSGTDFTLKISRVEAEDVGVYYCFQGSHLPLTFGQGTKLEIK", "< 1e-05 s⁻¹"],
  ["toripalimab Fab L.L101A (Fab, V domains shown, as the heavy chain of Sm3; light chain of Sm3 with this change; numbers count from the chain's first residue; source: Brevibacillus, culture supernatant (ammonium sulfate precipitate); not shown: 6xHis, C-terminal, kept; 6xHN, C-terminal, kept) VH: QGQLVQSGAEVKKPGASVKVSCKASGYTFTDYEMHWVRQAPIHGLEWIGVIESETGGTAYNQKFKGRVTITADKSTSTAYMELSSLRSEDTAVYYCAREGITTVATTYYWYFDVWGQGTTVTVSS VL: DVVMTQSPLSLPVTLGQPASISCRSSQSIVHSNGNTYLEWYLQKPGQSPQLLIYKVSNRFSGVPDRFSGSGSGTDFTLKISRVEAEDVGVYYCFQGSHVPATFGQGTKLEIK", "< 1e-05 s⁻¹"],
  ["toripalimab Fab L.S57A (Fab, V domains shown, as the heavy chain of Sm3; light chain of Sm3 with this change; numbers count from the chain's first residue; source: Brevibacillus, culture supernatant (ammonium sulfate precipitate); not shown: 6xHis, C-terminal, kept; 6xHN, C-terminal, kept) VH: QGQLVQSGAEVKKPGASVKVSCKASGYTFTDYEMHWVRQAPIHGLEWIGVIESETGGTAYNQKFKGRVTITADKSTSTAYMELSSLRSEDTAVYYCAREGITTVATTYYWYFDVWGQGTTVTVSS VL: DVVMTQSPLSLPVTLGQPASISCRSSQSIVHSNGNTYLEWYLQKPGQSPQLLIYKVANRFSGVPDRFSGSGSGTDFTLKISRVEAEDVGVYYCFQGSHVPLTFGQGTKLEIK", "< 1e-05 s⁻¹"]
]}
